experimental.target: Agg-1 (Homo sapiens)
Sequence (O75173 213-837): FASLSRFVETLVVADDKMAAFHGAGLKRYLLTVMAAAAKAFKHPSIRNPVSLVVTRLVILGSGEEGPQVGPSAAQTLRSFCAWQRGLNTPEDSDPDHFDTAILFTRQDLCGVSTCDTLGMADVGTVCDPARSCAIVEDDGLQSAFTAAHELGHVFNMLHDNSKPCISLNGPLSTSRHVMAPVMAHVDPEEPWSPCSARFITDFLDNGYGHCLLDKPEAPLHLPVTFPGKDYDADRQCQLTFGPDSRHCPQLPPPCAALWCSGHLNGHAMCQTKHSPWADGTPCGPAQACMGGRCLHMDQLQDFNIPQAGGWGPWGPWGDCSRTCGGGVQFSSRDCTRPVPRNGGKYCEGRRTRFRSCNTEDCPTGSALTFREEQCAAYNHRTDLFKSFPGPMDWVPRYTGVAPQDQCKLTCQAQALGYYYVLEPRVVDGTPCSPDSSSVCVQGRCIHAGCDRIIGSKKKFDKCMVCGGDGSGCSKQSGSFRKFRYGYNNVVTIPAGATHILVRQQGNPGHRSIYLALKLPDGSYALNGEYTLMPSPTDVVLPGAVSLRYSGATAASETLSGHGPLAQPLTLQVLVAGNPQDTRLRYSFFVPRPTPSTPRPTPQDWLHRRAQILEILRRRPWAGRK
assay.procedure: Agg-1 FRET assay
Type: biochemical
stated.conditions: @ 22000 nM; read-out: Agg1 %
assay.endpoint: inhibition at 22 µM (%)
Express it in %; write the number only.

Would you please look over these solved cases?
O=C(COc1ccccc1)NC(c1ccccc1N1CCOCC1)c1cc(Cl)c2cccnc2c1O (stereo not drawn) | 59
O=C(COc1ccccc1)NC(c1cc(Cl)c2cccnc2c1O)c1cccc2ncccc12 (stereo not drawn) | 46

We now examine a further compound.
According to the records, this compound O=C(COc1ccccc1)NC(CCc1ccccc1)c1cc(Cl)c2cccnc2c1O (stereo not drawn) displays inhibition at 22 µM of 56

====

experimental.target: recombinant human Aggrecanase-2 Agg2-Phe628 (Homo sapiens)
Sequence (Q9UNA0 262-628 limits assumed): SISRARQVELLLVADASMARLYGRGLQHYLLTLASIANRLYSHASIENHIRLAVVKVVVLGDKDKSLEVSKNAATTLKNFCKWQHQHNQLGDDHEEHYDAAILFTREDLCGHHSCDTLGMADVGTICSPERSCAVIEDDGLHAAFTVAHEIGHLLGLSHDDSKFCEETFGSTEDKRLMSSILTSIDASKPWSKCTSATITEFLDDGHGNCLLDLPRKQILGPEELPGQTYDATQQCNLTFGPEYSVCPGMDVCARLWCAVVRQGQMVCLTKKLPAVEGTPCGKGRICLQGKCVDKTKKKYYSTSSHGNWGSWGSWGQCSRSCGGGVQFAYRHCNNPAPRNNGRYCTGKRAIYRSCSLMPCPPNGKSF
assay.procedure: Aggrecanase 2 in vitro enzyme assay (Agg-2 FRET, quenched fluorescent peptide substrate)
Assay type: biochemical
Design: purified recombinant human Aggrecanase-2 Agg2-Phe628 (MW=41,737); This is a truncated form of full-length human aggrecanase-2; made in house; host or cells: CHO cells
stated.conditions: read-out: Agg2 IC50
Protocol: A continuous assay was used in which the substrate was a synthetic peptide containing a fluorescent group (o-aminobenzyl, Abz), which was quenched by energy transfer to a 2,4-dinitrophenyl group (Dnp). The buffer used in this assay was 50 mM HEPES, pH 7.5, 100 mM NaCl, 5 mM CaCl2, 0.1% CHAPS, 5% glycerol. […] The concentration of this substrate stock was spectrophotometrically determined using the extinction coefficient at 354 nm of 18,172 M^−1cm^−1. […]
assay.endpoint: pIC50
Hey, just a heads up that pIC50 is the negative log base 10 of the concentration in molar.

Below: 5 compounds and their reported pIC50.
O=C(CNCc1ccc2c(c1)OCO2)NC(c1ccccc1)c1cc(Cl)c2cccnc2c1O (stereo not drawn) | 5.56
O=C(COc1ccccc1)NC(c1ccoc1)c1cc(Cl)c2cccnc2c1O (stereo not drawn) | 5.46
Nc1cccc(C(NC(=O)COc2ccccc2)c2cc(Cl)c3cccnc3c2O)c1 (stereo not drawn) | 5.34
O=C(COc1ccc(-c2ccccc2)cc1)NC(c1ccccc1)c1cc(Cl)c2cccnc2c1O (stereo not drawn) | 5.70
O=C(COc1ccccc1)N[C@H](c1ccccc1Cl)c1cc(Cl)c2cccnc2c1O | 6.06

# evaluate next
The compound O=C(COc1ccc2c(c1)OCO2)NC(c1ccccc1Cl)c1cc(Cl)c2cccnc2c1O (stereo not drawn) showed pIC50 equal to 6.00

Reference source for all entries: patent US20080269213A1
